The measured values listed here are drawn from the supplement of paper PMC10126150.

Tested on: ATP;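 further: ATP exposure 15 min at 22 °C before imaging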
TEST METHOD NOTES: switch fluorescence ratio, 500 uM ATP over buffer (Cy3 cluster intensity, sum of 5 cycles each) (fold (ratio)); higher = stronger signal-on switching upon ATP binding; sequences stand for … in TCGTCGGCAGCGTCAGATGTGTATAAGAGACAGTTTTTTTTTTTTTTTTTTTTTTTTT…TC
CONDITION DESCRIPTION: aptamer strand: ATP DNA aptamer (quencher-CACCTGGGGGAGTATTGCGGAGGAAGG + anchor), 100 nM annealed; ATP concentration: 500 uM
READOUT KIND: switch fluorescence ratio
When you answer, write just the number.

What switch fluorescence ratio appears in the records for this sequence with ATP? CAATTGGGTT 0.985

Hi! What's the reported switch fluorescence ratio for AGCAGGATGC on ATP? 0.987

Could you share what switch fluorescence ratio was measured for TATGAAGCCC , tested on ATP? 1.02

Form field: switch fluorescence ratio recorded for CGGTGAGGCT with ATP (enter value) 0.984

Give recorded switch fluorescence ratio with ATP for the following sequence: ACATGGGGGA 1.02

Give the reported switch fluorescence ratio for TGAGCTCACG (system: ATP). 1.02

// lookup switch fluorescence ratio | system=ATP | key= CAGGGGGGTA 1.01

State its switch fluorescence ratio on ATP: TGAGTAAGGT 0.995

Query switch fluorescence ratio on ATP for TGCTACGGCG 1.02

Give recorded switch fluorescence ratio with ATP for the following sequence: TAGAGTGGGC 0.991

Find switch fluorescence ratio (ATP) for the entry GCATGGAAGA 0.992

====

Test system: ATP;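 further: ATP exposure 15 min at 22 °C before imaging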
TEST METHOD NOTES: switch fluorescence ratio, 500 uM ATP over buffer (Cy3 cluster intensity, sum of 5 cycles each) (fold (ratio)); higher = stronger signal-on switching upon ATP binding; sequences stand for … in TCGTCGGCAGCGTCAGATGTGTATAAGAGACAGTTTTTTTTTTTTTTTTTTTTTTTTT…TC
CONDITION DESCRIPTION: aptamer strand: ATP DNA aptamer (quencher-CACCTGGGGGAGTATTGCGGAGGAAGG + anchor), 100 nM annealed; ATP concentration: 500 uM
Classification field: yes (1) = switch fluorescence ratio at or over 1; no (0) = switch fluorescence ratio under 1.

Would you say CGATCGGGAT shows switch fluorescence ratio at minimum 1? yes (1)

Item CGGGTATGCC with switch fluorescence ratio of 1 or above? no (0)

Does AGGGGAAAAC have a reported switch fluorescence ratio of at least 1? yes (1)

Hi team, for CGGCAGGGTG , is the recorded switch fluorescence ratio at or above 1? yes (1)

====

System: ATP;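 further: ATP exposure 15 min at 22 °C before imaging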
TEST METHOD NOTES: switch fluorescence ratio, 500 uM ATP over buffer (Cy3 cluster intensity, sum of 5 cycles each) (fold (ratio)); higher = stronger signal-on switching upon ATP binding; sequences stand for … in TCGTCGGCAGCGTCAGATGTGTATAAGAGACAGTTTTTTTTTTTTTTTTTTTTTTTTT…TC
CONDITION DESCRIPTION: aptamer strand: ATP DNA aptamer (quencher-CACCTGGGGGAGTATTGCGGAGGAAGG + anchor), 100 nM annealed; ATP concentration: 500 uM
For each record, write down the corresponding switch fluorescence ratio.
Kindly provide the number alone.

Please state recorded switch fluorescence ratio (tested on ATP) of AGCCGTATGA 1.01

Recall the recorded switch fluorescence ratio for TGTGGTGAA with ATP and state it. 1.01

Form entry - test system: ATP; read-out: switch fluorescence ratio; sequence: TGCTTGGGTA 1.01

Reported switch fluorescence ratio for ATP, given CGGGGAGGGG ? 0.985

# value lookup — system ATP, readout switch fluorescence ratio, item GTTTGTAACG 1.02

Under ATP: switch fluorescence ratio value of TGTGTGCGGT ? 0.997

Under ATP: switch fluorescence ratio value of CAGAATGCGG ? 0.991

Return switch fluorescence ratio measured with ATP given this sequence: CGTTTTTTTT 0.989

Given the entry TGGCTCTCAT , what switch fluorescence ratio was observed with ATP? 1.02

Missing value: switch fluorescence ratio, ATP, entry TAGGGCAGAG . Fill in? 0.994

switch fluorescence ratio of TCGTGTATTG on ATP? 0.984

What reported switch fluorescence ratio corresponds to TCGGGTAAGC on ATP? 1.01

Please tell me: switch fluorescence ratio of CAAAAAGTTG , system ATP? 1.02

What measured switch fluorescence ratio is associated with TGGGTAACGT on ATP? 0.987

What switch fluorescence ratio appears in the records for this sequence with ATP? AGAGTAGGGT 1

Short answer please: switch fluorescence ratio, ATP, entry AGAATTAACT 0.998

Entry GCACATTATG , system ATP: what switch fluorescence ratio was measured? 0.985

Find switch fluorescence ratio (ATP) for the entry CCGGGTTTTG 1.02

For ATP, provide switch fluorescence ratio of ATTGGAGTTA please. 0.999

Give switch fluorescence ratio (ATP) of the following sequence: GAGGTTTAGG 0.986

State its switch fluorescence ratio on ATP: TAGTCATATC 1.01

Form field: switch fluorescence ratio recorded for AAAGAGTGAT with ATP (enter value) 1.02

Give switch fluorescence ratio (ATP) of the following sequence: TAGTGGGTGG 0.989

Report switch fluorescence ratio for GGCGATTGCG tested on ATP. 0.979

Can you look up switch fluorescence ratio on ATP for TATATGGTCC ? 0.984

Kindly state the measured switch fluorescence ratio obtained for AAGAAAGACT with ATP. 1.02

Lab request: please report switch fluorescence ratio under test system ATP for TGCTGCTAGC 0.985

Form field - read-out: switch fluorescence ratio; system: ATP; submitted item: AACCGGGGGG 0.994

Reported switch fluorescence ratio for ATP, given TTTGTTGATA ? 0.983

Under ATP: switch fluorescence ratio value of GGTTTCTAGG ? 0.993

Notebook entry, ATP assay: switch fluorescence ratio of CTGAGGGGTG = ? 1.01

Quick check: switch fluorescence ratio on ATP, item CTTTGGGGCT ? 0.999

Fill in the recorded switch fluorescence ratio for this sequence, with ATP as test system: ATACGTTTCG 0.998

Query switch fluorescence ratio on ATP for GTAAGGGATG 1.01

API: value(readout= switch fluorescence ratio, system= ATP, query= AGTGGTTTAT ) 0.985

Record lookup: for ATP, what switch fluorescence ratio belongs to ATTTCAGTCT ? 0.977

Could you share what switch fluorescence ratio was measured for TTATGGGAAG , tested on ATP? 0.998

Lookup: switch fluorescence ratio / ATP / ATTTCAATTA 1.01

Record lookup: for ATP, what switch fluorescence ratio belongs to TCATTAGAGG ? 0.994

Item: GGAGGGGGGG Test system: ATP Read-out: switch fluorescence ratio Value: ? 1.02

====

Tested on: ATP;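 further: ATP exposure 15 min at 22 °C before imaging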
TEST METHOD NOTES: switch fluorescence ratio, 500 uM ATP over buffer (Cy3 cluster intensity, sum of 5 cycles each) (fold (ratio)); higher = stronger signal-on switching upon ATP binding; sequences stand for … in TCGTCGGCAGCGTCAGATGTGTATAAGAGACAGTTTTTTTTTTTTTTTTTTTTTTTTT…TC
CONDITION DESCRIPTION: aptamer strand: ATP DNA aptamer (quencher-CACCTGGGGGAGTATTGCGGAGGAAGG + anchor), 100 nM annealed; ATP concentration: 500 uM
Kindly state switch fluorescence ratio for each of the entries shown.
# answer = number (no unit)

What measured switch fluorescence ratio goes with GGCTGGGGTA ? 0.988

So what does the record say about switch fluorescence ratio for TTTTGCTGGT ? 1

// query switch fluorescence ratio value for entry AGGTTAGTCG 1.01

Field request: switch fluorescence ratio | item: TGTGTGACAC 0.998

Which switch fluorescence ratio value is on record for TAAGAAGTCG ? 0.975

Dear colleague, I am looking for the recorded switch fluorescence ratio of the following sequence: GGCCCACCCA 1.02

Would you kindly share the measured switch fluorescence ratio for AGGTCCGGTA ? 1.01

Request the reported switch fluorescence ratio associated with CATTCTAAAG 1.02

What value of measured switch fluorescence ratio is listed for GGTGCTTTTT ? 0.987

Param item = CTAATGTGCC ; retrieve measured switch fluorescence ratio. 0.993

What does the data say about its switch fluorescence ratio? Entry: GACTGGTTTT 1.01

Can you look up the measured switch fluorescence ratio of AGGCAGGACT for me? 1.02

What value of measured switch fluorescence ratio is listed for CAGGAAAGCA ? 0.994

Please report the recorded switch fluorescence ratio for TGCGCATAGA . 1.02

Fill in the blank: the reported switch fluorescence ratio of TGTCAGGGGG is ____. 1.01

Look up switch fluorescence ratio: GGCCGGTTGG 0.974

// returns reported switch fluorescence ratio for input ACTTGTTCGT 1.01

Fill in the blank: the reported switch fluorescence ratio of AGGGATGGTA is ____. 1.01

Would you kindly share the measured switch fluorescence ratio for TTATTGCGCT ? 0.994

Give the measured switch fluorescence ratio of ATTATTCAGT . 0.997

Field request: switch fluorescence ratio | item: AGGTGGGGAG 0.998

If you can, please state the reported switch fluorescence ratio value of TCCGTTTGTT . 0.991

Fill in the blank: the reported switch fluorescence ratio of TCACTGGTTG is ____. 1.01

Requested field: switch fluorescence ratio. Item: AGGCGGACTG 1.02

I'd like to know its switch fluorescence ratio. The sequence in question is CCAGAGGAAT 1.04

What does the record list as switch fluorescence ratio for TTGACCTGGT ? 1.05

Bench note: what switch fluorescence ratio did TGAGCGGGAG show? 1.06

# get_value(readout='switch fluorescence ratio', item= TAGTCTATCG ) 0.969

# switch fluorescence ratio lookup, item GTGGTCCGCG 1.02

Data request, read-out switch fluorescence ratio, for CCGTTGGTAA 1.35

Look up switch fluorescence ratio for this sequence: GCGTGCAGGG 1.01

Give the measured switch fluorescence ratio of TAGTATGGGT . 0.969

What does the data say about its switch fluorescence ratio? Entry: CAGAGATTCT 0.992

If you can, please state the reported switch fluorescence ratio value of GAGACTAGAT . 1.01

Please report the recorded switch fluorescence ratio for TCAAATCGGG . 0.999

Requested read-out: switch fluorescence ratio. Entry: GTTAGTTGGA 0.964

Which switch fluorescence ratio is listed for AGGGGAGGCA ? 1.02

Entry AGCTGAGGGG : reported switch fluorescence ratio = ? 1.01

Endpoint output: switch fluorescence ratio of TTTGGTTATA . Value? 1

Consider the sequence shown here: AGGACGCTGG What is its recorded switch fluorescence ratio? 0.945

I'd like to know its switch fluorescence ratio. The sequence in question is GAGGCAGCGA 1.3

Can you look up the measured switch fluorescence ratio of TGGGTTTCTT for me? 1.02

What switch fluorescence ratio value was documented for this sequence, TTTAATACGG ? 1.04

What value of measured switch fluorescence ratio is listed for GATGCGGCTA ? 1.02

May I ask what switch fluorescence ratio has been recorded for ATATAGGGGG ? 0.997

So what's the measured switch fluorescence ratio for this one? GGTGCATGGC 1.04

Bench note: what switch fluorescence ratio did CAGAACTCTT show? 0.963

Dear colleague, I am looking for the recorded switch fluorescence ratio of the following sequence: ATGGTTGTGC 0.991

What value of measured switch fluorescence ratio is listed for GTGAGTGGGG ? 0.972

Fill in: switch fluorescence ratio of CATGACTCCC is ___ 2.01

Find the recorded switch fluorescence ratio belonging to ATGTAAATGT and report it. 1.04

Could you tell me which switch fluorescence ratio is on file for CGACTTTTGT ? 0.967

# query: switch fluorescence ratio of entry AAATAAAGCT 1.07

# query: switch fluorescence ratio of entry AGTTGCGTTG 0.996

Which switch fluorescence ratio is reported for this sequence? GAAATTAGAT 1

Please give the measured switch fluorescence ratio for this sequence: CTATCTTTAG 0.989

Recorded switch fluorescence ratio for GGGTATATAG , please? 1.02

Consider the sequence GAAAGTTAAG and give its measured switch fluorescence ratio. 1.02

What does the data say about its switch fluorescence ratio? Entry: TTGCCACGGA 1.07

What does the data say about its switch fluorescence ratio? Entry: TCAGTGCTTA 1.01

Looking for the measured switch fluorescence ratio of AGTATATTGG , can you help? 0.99

Which value of switch fluorescence ratio has been reported for CGGTGGGTTA in the records? 0.985

Fill in: switch fluorescence ratio of GATGGATTTG is ___ 1.02

Dear colleague, I am looking for the recorded switch fluorescence ratio of the following sequence: ACTTTTGAAA 0.994

Can you share its switch fluorescence ratio? I mean this sequence: AAATTCATTA 0.981

Entry AATTATGTAG : reported switch fluorescence ratio = ? 1
